Listing of entries alongside the reported TGI.
- Tested on: HCT-116 colon
- test: NCI tumour cell line growth inhibition, 48 h
measurement-label: TGI

INSERT INTO assay_data (compound, measured_on, result) VALUES
  ('COc1ccc2nc(NC(=O)C(=O)CC(=O)c3ccc([N+](=O)[O-])cc3)sc2c1', 'HCT-116 colon', '> 100 µM'),
  ('CC(=O)c1ccc(N=NN2CCCC2)cc1', 'HCT-116 colon', '> 100 µM'),
  ('COC12C(COC(=O)NCCO)C3=C(C(=O)C(C)=C(N)C3=O)N1CC1NC12 (stereo unspecified)', 'HCT-116 colon', '114 µM'),
  ('C=CCON(C(=O)OC(C)(C)C)C(C)(C)C', 'HCT-116 colon', '> 100 µM'),
  ('COc1cc(-c2nccc3[nH]c(-c4ccc5cc[nH]c5c4)nc23)cc(OC)c1OC', 'HCT-116 colon', '1.13 µM'),
  ('O=c1cc(Nc2cccc(O)c2)[nH]c(=O)[nH]1', 'HCT-116 colon', '> 100 µM'),
  ('CCOC(=O)C1S(=O)(=O)OCCOS1(=O)=O', 'HCT-116 colon', '> 100 µM'),
  ('CSC(=O)/C=C1\SS/C(=C\C(=O)SC)S1', 'HCT-116 colon', '3.29 µM'),
  ('CSc1nncc(-c2cc3c(c(SC)n2)CCCC3)n1', 'HCT-116 colon', '> 100 µM'),
  ('O=C(CCCC(=O)Nc1ccc(Cl)cc1Cl)CC(=O)c1ccc2ccccc2c1', 'HCT-116 colon', '> 100 µM'),
  ('Cc1cc(Cl)nc(N(CCNc2ccnc3cc(Cl)ccc23)Cc2ccco2)n1', 'HCT-116 colon', '3.2 µM');

====

- Tested on: TK-10 renal
- test: NCI tumour cell line growth inhibition, 48 h
measurement-label: GI50

INSERT INTO results (compound, result) VALUES
  ('Cc1cnc(C(=O)NNc2nc3sc4c(c3c(=O)[nH]2)C(C)CCC4)cn1 (stereo not drawn)', '1.99 µM'),
  ('CCCCCC(=O)O[C@]1(C(C)=O)CCC2C3CCC4=CC(=O)CC[C@]4(C)C3CC[C@@]21C (stereo partly drawn)', '3.46 µM'),
  ('CC(=O)Oc1c(C(=O)[O-])cc(C(C)C)cc1C(C)C.CC(=O)Oc1c(C(=O)[O-])cc(C(C)C)cc1C(C)C.CC(=O)Oc1c(C(=O)[O-])cc(C(C)C)cc1C(C)C.CC(=O)Oc1c(C(=O)[O-])cc(C(C)C)cc1C(C)C.[Cu+2].[Cu+2]', '33.7 µM');

====

- System: NCI-H226 lung
- test: NCI tumour cell line growth inhibition, 48 h
Where a SMILES comes first, the peptide text is derived from it. Bridges are numbered along the chain shown (N, C = ends). [ ]: non-standard residue; d: D form. aThr = C[C@H](O)[C@H](N)C(=O)O
Listing of entries alongside the reported GI50.
measurement-label: GI50

INSERT INTO results (compound, measurement_label, result) VALUES
  ('ClCCOCCn1cnc2c(Cl)nc(Cl)nc21', 'GI50', '16.3 µM'),
  ('O=C(O)CN(CCN(CC(=O)O)CC(=O)O)CC(=O)O.[Mn+2]', 'GI50', '> 100 µM'),
  ('CC(C)C[C@@H]1NC(=O)[C@@H]2CCCN2C(=O)[C@@H]2CCCN2C(=O)[C@H](CC(C)C)NC(=O)[C@H](CO)NC(=O)[C@H](CCCCN)NC(=O)[C@H]([C@H](C)O)NC(=O)[C@@H]2CSSC[C@@H](NC1=O)C(=O)N[C@@H](Cc1ccccc1)C(=O)N1CCC[C@H]1C(=O)N[C@@H](CC(=O)O)C(=O)NCC(=O)N[C@@H](CCCN=C(N)N)C(=O)N2 (cyclo(C[aThr]KSLPPL[dC]FPDGR); disulfide 1-9)', 'GI50', '> 50 µM');

Data provenance is PubChem BioAssay (NCI).
